EC50 values, listed per item
target: T1, human LILRB4 (human, UniProt Q8NHJ6 22-259, limits assumed); test: ELISA
T1 construct: also called leukocyte immunoglobulin-like receptor subfamily B member 4
Write down the numeric answer in nM and omit the unit.

Before answering, review these 4 worked examples.
>  <binder>
anti-LILRB4 rabbit monoclonal antibody #192 (antibody, V domains shown, Rabbit mAb) VH: EQSLEESGGGLVTPGGTLTLTCTVSGFSLSNNAMSWVRQAPGKGLEWIGVILLAGPTYYASWAKGRFTISKTSTTVDLKITSPTTEDTATYFCAIAIGSRPFALWGQGTLVTISS VL: ELVLTQTPSSTSAAVGGTVTINCQSSQSVYSNWLSWFQQKPGQPPKPLIYLASTLASGVPSRFSGSGSGTQFTLTISDVQCDDAATYYCQGGYNGNIYTFGGGTEVVVK

>  <EC50 (nM)>
0.14

$$$$
>  <binder>
anti-LILRB4 rabbit monoclonal antibody #6 (antibody, V domains shown, Rabbit mAb) VH: QSVKESGGRLVTPGTPLTLTCTASGFSLSTYYIDWVRQAPGRGLEYIGVINPGGSAVYATWAKGRFTISRTSTTVDLKMTSLTTEDTATYFCARGWSRGDLWGQGTLVTISS VL: ELDMTQTPSPVSAAVGGTVTIKCQSSQNVYDDDTLSWYQQKPGQPPKLLIYDASKLASGVPSRFKGSGSGTQFTLTISGVQCDDAATYYCLGVFHDAADNAFGGGTELEIK

>  <EC50 (nM)>
0.0767

$$$$
>  <binder>
anti-LILRB4 rabbit monoclonal antibody #140 (antibody, V domains shown, also called mAb 140) VH: EQSLKESGGRLVTPGTPLTLTCTASGFSLSTYDMSWVRQAPGKGLEWIGIISTSYSIYYTYYASWAKGRFTISRTSSTTVDLKMTSLTTEDTATYFCVGGGGKLNSVVYYIRGLRFWGQGTLVTISS VL: ELVMTQTPSSTSAAVGGTVTINCQASQSVYDDNWCSWYQQKPGQPPKLLIYDASTLPSGVPSRFKGSGSGTQFTLTISDLECDDAATYYCAGAYSDNIYVFGGGTEVEIK

>  <EC50 (nM)>
0.183

$$$$
>  <binder>
anti-LILRB4 rabbit monoclonal antibody #101 (antibody, V domains shown, Rabbit mAb) VH: HSVKESGGGLVTPGESLKLTCKASGMDFSKYWICWVRQAPGKGLEWIACIDTGRSAITVYAKWAKGRFTISKTSSTTVTLQMTTLTAADTATYFCETSVDLWGPGTLVTISS VL: ELDLTQTPASVEAAVGGTVTIKCQASESIYSGLAWYKQKPGQPPKFLILSASTQASGVPSRFKGSGSGTEFTLTISDLECADAATYYCQSRHYGSSRSYGFAFGGGTEVEIK

>  <EC50 (nM)>
0.118

$$$$

For the next question, use this binder.
## Input What value of measured EC50 is listed for anti-LILRB4 rabbit monoclonal antibody #210 (antibody, V domains shown) VH: EQSVEESGGRLVTPGTPLTLTCTVSGFSLSSYIMGWVRQARGKGLEYIGAINTDGATYYATWAKGRFTISRTSTTVHLKVTSPTTEDTATYFCARSLAPGDSNINLWGQGTLVTISS VL: ELVLTQTPSPVSAAVGGTVTISCQSSESVYRNNRLAWYQQKPGQPPKRLIYLASTLASGVPSRFKGSGSGTQFTLTISDVQCDDAAAYYCAGDSGVGIIAFGGGTEVEIK ?
## Output 0.0997
